Test system: Differentiated normal human bronchial epithelial (dNHBE) cells
PROCEDURE_TEXT: dNHBE assay: toxicity evaluated microscopically
Assay type: cell-based
Set-up: unit not given here
Measured Visual toxicity values are reported for all entries that follow.
READOUT: Visual toxicity

* CNc1nc(N)nc2c1ncn2[C@@H]1O[C@](CF)(CO[P@@](=O)(N[C@@H](C)C(=O)OC(C)C)Oc2ccccc2)[C@@H](O)[C@@H]1F | >1.6
* CNc1nc(N)nc2c1ncn2[C@@H]1O[C@@](CO)(CCl)[C@@H](O)[C@H]1F | >288
* CC(C)OC(=O)[C@H](C)N[P@](=O)(OC[C@@]1(C)O[C@@H](n2cnc3c(N(C)C)nc(Cl)nc32)[C@H](F)[C@@H]1O)Oc1ccccc1 | >16
* CN(C)c1nc(N)nc2c1ncn2[C@@H]1O[C@](C)(CO)[C@@H](O)[C@H]1F | >306
* CNc1nc(OC)nc2c1ncn2[C@@H]1O[C@](CCl)(CO[P@@](=O)(N[C@@H](C)C(=O)OC(C)C)Oc2ccccc2)[C@@H](O)[C@H]1F | >1.6
* CNc1nc(Cl)nc2c1ncn2[C@@H]1O[C@](C)(CO[P@@](=O)(N[C@@H](C)C(=O)OC(C)C)Oc2ccccc2)[C@@H](O)[C@H]1F | >1.6
* CC[C@]1(CO)O[C@@H](n2cnc3c(N(C)C)nc(N)nc32)[C@H](F)[C@@H]1O | >293

Recorded values, source patent US10202412B2.
